# assay protocol: Cytotoxicity against human HCT116 cells after 72 hrs by CCK8 assay
# Format: functional, cell-based
# experimental parameters: HCT-116, 72 h
pIC50: −log10 of the molar value. Peptide text beside a SMILES is read from it.
This section presents compounds with their documented pIC50 values.

- compound: "CC(C)C[C@@H]1NC(=O)[C@H](C(C)C)N(C)C(=O)[C@@H](CC(C)C)NC(=O)[C@@H](Cc2ccncc2)NC(=O)[C@@H](C(c2ccccc2)c2ccccc2)NC1=O"
  pIC50: 4.80
- compound: "COc1ccc(C[C@H]2NC(=O)[C@@H](C(c3ccccc3)c3ccccc3)NC(=O)[C@H](CC(C)C)NC(=O)[C@H](C(C)C)N(C)C(=O)[C@@H](CC(C)C)NC2=O)cc1"
  pIC50: 5.29
- compound: "CC(C)C[C@@H]1NC(=O)[C@H](C(C)C)N(C)C(=O)[C@@H](CC(C)C)NC(=O)[C@@H](Cc2ccccn2)NC(=O)[C@@H](C(c2ccccc2)c2ccccc2)NC1=O"
  pIC50: 4.74
- compound: "CC(C)C[C@@H]1NC(=O)[C@H](C(C)C)N(C)C(=O)[C@@H](CC(C)C)NC(=O)[C@@H](Cc2cccnc2)NC(=O)[C@@H](C(c2ccccc2)c2ccccc2)NC1=O"
  pIC50: 4.68
- compound: "CC(C)C[C@@H]1NC(=O)[C@H](C(C)C)N(C)C(=O)[C@@H](CC(C)C)NC(=O)[C@@H](Cc2c[nH]c3ccccc23)NC(=O)[C@@H](C(c2ccccc2)c2ccccc2)NC1=O"
  pIC50: 5.41
- compound: "CC(C)C[C@@H]1NC(=O)[C@H](C(C)C)N(C)C(=O)[C@@H](CC(C)C)NC(=O)[C@@H](Cc2cscn2)NC(=O)[C@@H](C(c2ccccc2)c2ccccc2)NC1=O (HELM PEPTIDE1{L.[O=C([C@H](N[*:1])C(c1ccccc1)c1ccccc1)[*:2]].[O=C([C@@H](Cc1cscn1)N[*:1])[*:2]].[dL].[meV]}$PEPTIDE1,PEPTIDE1,1:R1-5:R2$$$V2.0)"
  pIC50: 5.30
- compound: "CC(C)C[C@@H]1NC(=O)[C@H](C(C)C)N(C)C(=O)[C@@H](CC(C)C)NC(=O)[C@@H](Cc2ccccc2)NC(=O)[C@@H](C(c2ccccc2)c2ccccc2)NC1=O"
  pIC50: 5.12
- compound: "CC(C)C[C@@H]1NC(=O)[C@H](C(C)C)N(C)C(=O)[C@@H](CC(C)C)NC(=O)[C@@H](Cc2ccccc2)NC(=O)[C@@H]([C@H](OCc2ccccc2)c2ccccc2)NC1=O (HELM PEPTIDE1{L.[O=C([C@H](N[*:1])[C@H](OCc1ccccc1)c1ccccc1)[*:2]].[dF].[dL].[meV]}$PEPTIDE1,PEPTIDE1,1:R1-5:R2$$$V2.0)"
  pIC50: 5.13

----------
# assay protocol: Solubility in 80% EtOH/20% water
# Assay type: physicochemical
# experimental parameters: 80% EtOH/20% water; read-out: solubility
Peptide text beside a SMILES is read from it.
This section presents compounds with their documented solubility values.

- compound: "COc1ccc(C[C@H]2NC(=O)[C@@H](C(c3ccccc3)c3ccccc3)NC(=O)[C@H](CC(C)C)NC(=O)[C@H](C(C)C)N(C)C(=O)[C@@H](CC(C)C)NC2=O)cc1"
  solubility (µg/mL): 1500
- compound: "CC(C)C[C@@H]1NC(=O)[C@H](C(C)C)N(C)C(=O)[C@@H](CC(C)C)NC(=O)[C@@H](Cc2ccccc2)NC(=O)[C@@H]([C@H](OCc2ccccc2)c2ccccc2)NC1=O (HELM PEPTIDE1{L.[O=C([C@H](N[*:1])[C@H](OCc1ccccc1)c1ccccc1)[*:2]].[dF].[dL].[meV]}$PEPTIDE1,PEPTIDE1,1:R1-5:R2$$$V2.0)"
  solubility (µg/mL): 5200
- compound: "CC(C)C[C@@H]1NC(=O)[C@H](C(C)C)N(C)C(=O)[C@@H](CC(C)C)NC(=O)[C@@H](Cc2c[nH]c3ccccc23)NC(=O)[C@@H](C(c2ccccc2)c2ccccc2)NC1=O"
  solubility (µg/mL): 1900
- compound: "CC(C)C[C@@H]1NC(=O)[C@H](C(C)C)N(C)C(=O)[C@@H](CC(C)C)NC(=O)[C@@H](Cc2ccccc2)NC(=O)[C@@H](C(c2ccccc2)c2ccccc2)NC1=O"
  solubility (µg/mL): 2100

From: ChEMBL document CHEMBL3352743
